Assign T/C to each entry below.
- System: P388 leukemia ip, CD2F1 mice, survival T/C
- measurement protocol: NCI In Vivo Anticancer Drug Screen. Data for tumor model P388 Leukemia (intraperitoneal) in CD2F1 (CDF1) mice
- protocol conditions: endpoint: median survival time; dose: 50.0 mg/kg/injection; schedule: Q01DX009 (ip); vehicle: saline with Tween-80; higher = longer survival
Toxic doses and inconclusive results are not listed.

Task: Give reported T/C for Cc1ccccc1NC(CCN1CCCCC1)=NC(C)(C)C (P388 leukemia ip, CD2F1 mice, survival T/C)
Result: 111 % of control

Task: Give reported T/C for CCCC(NC(N)=O)C(CCC)NC(N)=O (centres undefined) (P388 leukemia ip, CD2F1 mice, survival T/C)
Result: 102 % of control

Task: Give reported T/C for CSCOC/C=C(\C)CCC=C(C)C (P388 leukemia ip, CD2F1 mice, survival T/C)
Result: 98 % of control

Task: Give reported T/C for CCCCCCCCCCCCOC(=O)c1ccc(I)cc1 (P388 leukemia ip, CD2F1 mice, survival T/C)
Result: 97 % of control

Task: Give reported T/C for NNC(=O)CNC(=O)Nc1n[nH]c(=S)s1 (P388 leukemia ip, CD2F1 mice, survival T/C)
Result: 101 % of control

Task: Give reported T/C for Cc1ccc(NC(=O)N2c3ccccc3SC23CCCCC3)c(C)c1 (P388 leukemia ip, CD2F1 mice, survival T/C)
Result: 102 % of control

Task: Give reported T/C for CCCCC(CC)CO.[Ti] (centres undefined) (P388 leukemia ip, CD2F1 mice, survival T/C)
Result: 90 % of control

Task: Give reported T/C for CN(C)C(=O)Oc1ccc(Br)cc1 (P388 leukemia ip, CD2F1 mice, survival T/C)
Result: 101 % of control

Task: Give reported T/C for CN1C(=O)CC(Sc2ccccc2)c2cc(Cl)ccc21 (centres undefined) (P388 leukemia ip, CD2F1 mice, survival T/C)
Result: 100 % of control

Task: Give reported T/C for BrC1/C=C\CC(Br)/C=C\C1 (centres undefined) (P388 leukemia ip, CD2F1 mice, survival T/C)
Result: 110 % of control

Task: Give reported T/C for CC1(C)N=C(N)N=C(N)N1c1ccc(CCC(=O)Nc2ccc(S(=O)(=O)F)cc2)cc1 (P388 leukemia ip, CD2F1 mice, survival T/C)
Result: 177 % of control

Task: Give reported T/C for O=[N+]([O-])c1cccc(C(O)C=C(C(F)(F)F)C(F)(F)F)c1 (centres undefined) (P388 leukemia ip, CD2F1 mice, survival T/C)
Result: 113 % of control

Task: Give reported T/C for CN(C)c1ccc(-c2nc3c4ccccc4c4ccccc4c3[nH]2)cc1 (P388 leukemia ip, CD2F1 mice, survival T/C)
Result: 105 % of control

Task: Give reported T/C for CCOC(=O)C(=CN(C)c1ccccc1)C(=O)OCC (P388 leukemia ip, CD2F1 mice, survival T/C)
Result: 108 % of control

Task: Give reported T/C for CCSC(=O)N1c2ccc(OC)cc2C=CC1C#N (centres undefined) (P388 leukemia ip, CD2F1 mice, survival T/C)
Result: 105 % of control

Task: Give reported T/C for COc1cc[n+](CCc2c[nH]c3ccccc23)cc1 (P388 leukemia ip, CD2F1 mice, survival T/C)
Result: 113 % of control

Task: Give reported T/C for CCCCOC1OCN(C(C)(C)C)CC1(C)C (centres undefined) (P388 leukemia ip, CD2F1 mice, survival T/C)
Result: 100 % of control

Task: Give reported T/C for CCCCCCC(O)C[N+](=O)[O-] (centres undefined) (P388 leukemia ip, CD2F1 mice, survival T/C)
Result: 120 % of control

Task: Give reported T/C for CCCCc1ccc(Nc2ccc(Nc3ccc(CCCC)cc3S(=O)(=O)O)c3c2C(=O)c2ccccc2C3=O)c(S(=O)(=O)O)c1 (P388 leukemia ip, CD2F1 mice, survival T/C)
Result: 94 % of control

* * *

- System: P388 leukemia ip, CD2F1 mice, survival T/C
- measurement protocol: NCI In Vivo Anticancer Drug Screen. Data for tumor model P388 Leukemia (intraperitoneal) in CD2F1 (CDF1) mice
- protocol conditions: endpoint: median survival time; dose: 100.0 mg/kg/injection; schedule: Q04DX003 (ip); vehicle: Klucel (hydroxypropylcellulose) (HPC); higher = longer survival
Inconclusive results and toxic doses are left out.
endpoint label: T/C

Task: Provide only the value of recorded T/C for O=C1COCC(=O)OCCOCCSCCOCCO1
Result: 102 % of control

Task: Provide only the value of recorded T/C for O=c1[nH]cnc2cc(N3CCN(Cc4ccccc4)CC3)c([N+](=O)[O-])cc12
Result: 102 % of control

Task: Provide only the value of recorded T/C for CN(C)c1ccc(C(=O)C(=O)c2ccccc2)cc1
Result: 106 % of control

Task: Provide only the value of recorded T/C for O=C1NC2NC(=O)NC2N1 (configuration not stated)
Result: 94 % of control

Task: Provide only the value of recorded T/C for CC(=O)OCCC/C(=C/c1cc2ccccc2c2ccccc12)[N+](=O)[O-]
Result: 104 % of control

Task: Provide only the value of recorded T/C for O=C(O)CC(CC(=O)N(CCP(c1ccccc1)c1ccccc1)CCP(c1ccccc1)c1ccccc1)C(=O)O (configuration not stated) (tested in a mixture with another compound)
Result: 99 % of control

Task: Provide only the value of recorded T/C for COc1ccc(CN2COc3c(ccc4cccnc34)C2)cc1
Result: 93 % of control

* * *

Assign T/C to each entry below.
- Test system: P388 leukemia ip, CD2F1 mice, survival T/C
- measurement protocol: NCI In Vivo Anticancer Drug Screen. Data for tumor model P388 Leukemia (intraperitoneal) in CD2F1 (CDF1) mice
- protocol conditions: endpoint: median survival time; dose: 200.0 mg/kg/injection; schedule: Q04DX003 (ip); vehicle: saline; higher = longer survival
Toxic doses and inconclusive results are not listed. Peptide text beside a SMILES is read from it.

Task: Provide only the value of recorded T/C for OCC(O)CCBr (centres undefined)
Result: 122 % of control

Task: Provide only the value of recorded T/C for Cn1nnnc1CC(=O)O
Result: 108 % of control

Task: Provide only the value of recorded T/C for CC(C)CC(NC(=O)C(N)Cc1c[nH]c2ccccc12)C(N)=O (stereo not drawn) (H-Trp-Leu-NH2; configuration not given here)
Result: 95 % of control

Task: Provide only the value of recorded T/C for O=C(Cc1ccccn1)c1cccnc1
Result: 96 % of control

* * *

- Test system: P388 leukemia ip, CD2F1 mice, survival T/C
- measurement protocol: NCI In Vivo Anticancer Drug Screen. Data for tumor model P388 Leukemia (intraperitoneal) in CD2F1 (CDF1) mice
- protocol conditions: endpoint: median survival time; dose: 100.0 mg/kg/injection; schedule: Q01DX009 (ip); vehicle: Klucel (hydroxypropylcellulose) (HPC); higher = longer survival
Inconclusive results and toxic doses are left out.
endpoint label: T/C

Task: Provide only the value of recorded T/C for CCN(CC)c1ccc(N=C(NC#N)SC)cc1
Result: 103 % of control

Task: Provide only the value of recorded T/C for Nc1ccc([N+](=O)[O-])cc1Nc1c2ccccc2nc2ccccc12
Result: 107 % of control

Task: Provide only the value of recorded T/C for CCOC(=O)CNC(=O)Nc1ccc(S(=O)(=O)Nc2nc(C)cc(C)n2)cc1
Result: 100 % of control

Task: Provide only the value of recorded T/C for O=C(O)c1cc(-c2ccccc2Cl)nc2cc3ccccc3cc12
Result: 101 % of control

Task: Provide only the value of recorded T/C for FC(F)(F)C1(C(F)(F)F)[O][Sb]([c]2ccc(Cl)cc2)([c]2ccc(Cl)cc2)([c]2ccc(Cl)cc2)[O]1
Result: 88 % of control

Task: Provide only the value of recorded T/C for O=C(CC1=NCCN1)c1ccccc1
Result: 102 % of control

Task: Provide only the value of recorded T/C for Nc1ncncc1-c1ccc2ccccc2c1
Result: 92 % of control

* * *

- System: P388 leukemia ip, CD2F1 mice, survival T/C
- measurement protocol: NCI In Vivo Anticancer Drug Screen. Data for tumor model P388 Leukemia (intraperitoneal) in CD2F1 (CDF1) mice
- protocol conditions: endpoint: median survival time; dose: 200.0 mg/kg/injection; schedule: Q01DX009 (ip); vehicle: Klucel (hydroxypropylcellulose) (HPC); higher = longer survival
Toxic doses and inconclusive results are not listed.
endpoint label: T/C

Task: Provide only the value of recorded T/C for CC(C)(C)c1ccc(C(=O)Nc2ccc(S(N)(=O)=O)cc2)cc1
Result: 101 % of control

Task: Provide only the value of recorded T/C for C[Si](C)(C)N1C(=O)c2ccccc2C1=O
Result: 107 % of control

Task: Provide only the value of recorded T/C for CCCCCCCCCSc1nc2ccc(N=Cc3ccccc3O)cc2s1
Result: 90 % of control

Task: Provide only the value of recorded T/C for O=C(O)c1cc(-c2ccccc2Cl)nc2cc3ccccc3cc12
Result: 101 % of control

Task: Provide only the value of recorded T/C for O=C(OC1COC(Br)C(OC(=O)c2ccccc2)C1OC(=O)c1ccccc1)c1ccccc1 (stereo not given)
Result: 100 % of control

Task: Provide only the value of recorded T/C for CC1(C)Cc2oc(=O)n(-c3ccccc3)c(=O)c2C1
Result: 100 % of control

Task: Provide only the value of recorded T/C for C=C1CCC(OC(C)=O)C2(C)C(OC(C)=O)CC3OC3(C)C2C(OC(C)=O)C2C(C)C(=O)OC2C1Cl (stereo not given)
Result: 93 % of control

Task: Provide only the value of recorded T/C for O=C(N/N=C/c1ccc(O)c(S(=O)(=O)O)c1)C(=O)N/N=C/c1ccc(O)c(S(=O)(=O)O)c1
Result: 108 % of control

Task: Provide only the value of recorded T/C for O=C1CCCCCCCCCCCCCCCO1
Result: 111 % of control

Task: Provide only the value of recorded T/C for CC1=CC2(C)C3C(=O)NC(=O)C3C1C1(C)C3C(=O)NC(=O)C3C21 (stereo not given)
Result: 97 % of control

Task: Provide only the value of recorded T/C for S=C(NCc1cccnc1)Nc1ccc(Cl)c(Cl)c1
Result: 104 % of control

Task: Provide only the value of recorded T/C for CCOC(=O)CNC(=O)Nc1ccc(S(=O)(=O)Nc2nc(C)cc(C)n2)cc1
Result: 100 % of control

Task: Provide only the value of recorded T/C for N#[N+]c1ccc2c(S(=O)(=O)Nc3ccc(-c4ccc(NS(=O)(=O)c5cccc6c([O-])c([N+]#N)ccc56)cc4)cc3)cccc2c1[O-]
Result: 98 % of control

Task: Provide only the value of recorded T/C for Fc1c(F)c(-c2c(F)c(F)c(OCC3CO3)c(F)c2F)c(F)c(F)c1OCC1CO1 (stereo not given)
Result: 102 % of control

Task: Provide only the value of recorded T/C for Cc1coc2c1CC1(C)C(CCC(OC(=O)CC(C)C)C1C)C2=O (stereo not given) (tested in a mixture with another compound)
Result: 93 % of control

Task: Provide only the value of recorded T/C for O=S(=O)(CC(O)C(Cl)(Cl)Cl)N1CCCCC1 (stereo not given)
Result: 100 % of control

Task: Provide only the value of recorded T/C for O=C1Nc2ccccc2/C1=C\c1ccccc1O
Result: 98 % of control

Task: Provide only the value of recorded T/C for CCN(CC)Cc1c(C)[nH]c2c(ccc3c2ccc2c(=O)c(CN(CC)CC)c(C)[nH]c23)c1=O
Result: 96 % of control

Task: Provide only the value of recorded T/C for CCN(C(=S)NCCCOC)c1ccc(C)cc1
Result: 87 % of control

Task: Provide only the value of recorded T/C for O=C(CC1CCCC/C1=N\O)NO (stereo not given)
Result: 117 % of control

Task: Provide only the value of recorded T/C for Cc1ccc(S(=O)OC2CC(C)CCC2C(C)C)cc1 (stereo not given)
Result: 100 % of control

Task: Provide only the value of recorded T/C for CN(N)c1nnnn1-c1ccccc1
Result: 113 % of control

Task: Provide only the value of recorded T/C for Fc1ccc(NC(=S)SCc2ccc3c(c2)OCO3)cc1F
Result: 86 % of control

Task: Provide only the value of recorded T/C for Cn1c(N)c(C(=O)N2CCN(c3ccccc3)CC2)c(=O)n(C)c1=O
Result: 91 % of control

Task: Provide only the value of recorded T/C for CC(=O)OC1CCC2(C)C(C1)CC(OC(C)=O)C1C2CC(OC(C)=O)C2(C)C(/C(C)=C\C=C(c3ccccc3)c3ccccc3)CCC12 (stereo not given)
Result: 121 % of control

Task: Provide only the value of recorded T/C for C1Cc2c3c(c4c(c2C1)CCC4)CCC3
Result: 100 % of control

Task: Provide only the value of recorded T/C for Cc1nn(C(=O)c2ccncc2)c(C)c1N=Nc1cccc2ccccc12
Result: 96 % of control

Task: Provide only the value of recorded T/C for CC(=O)OC1OC(CS[As](C)CCO)C(OC(C)=O)C(OC(C)=O)C1OC(C)=O (stereo not given)
Result: 112 % of control

Task: Provide only the value of recorded T/C for CC1(C)N2c3ccc(Cl)cc3C(c3ccccc3)N1c1ccc(Cl)cc1C2c1ccccc1 (stereo not given)
Result: 95 % of control

Task: Provide only the value of recorded T/C for C=CCCC(=O)OC(C)(C)C
Result: 103 % of control
